test system: SKBR-3; test: MTT assay, SKBR-3 breast cancer cells; format: cell-based; conditions: Homo sapiens, SK-BR-3; 10 μM, 72 h after the treatment, MTT, mean of three independent experiments; read-out: Percentage of cell viability SKBR-3
measuredParameter: viability at 10 µM
Your reply should be a number followed by the unit it is expressed in.

Reference set, count: 4
compound: Nc1nc(Nc2ccccc2Cl)nc(-c2cccs2)n1 [Compound 118]
target: SKBR-3
viability at 10 µM: 78%
//
compound: Cc1ccc(Nc2nc(N)nc(-c3ccc(Br)cc3)n2)cc1 [Compound 50]
target: SKBR-3
viability at 10 µM: 93%
//
compound: CC(C)c1ccc(Nc2nc(N)nc(-c3ccc(Cl)cc3)n2)cc1 [Compound 44]
target: SKBR-3
viability at 10 µM: 97%
//
compound: Cc1ccc(Nc2nc(N)nc(-c3cccs3)n2)cc1 [Compound 121]
target: SKBR-3
viability at 10 µM: 95%

Record COc1ccc(-c2nc(N)nc(Nc3ccc(Cl)cc3)n2)cc1 [Compound 75] / SKBR-3, viability at 10 µM recorded as 100%

----------
Tested on: SKBR-3
Test: MTT assay, SKBR-3 breast cancer cells
Type: cell-based
Details: Homo sapiens, SK-BR-3; 72 h, MTT, mean of three independent experiments ± SEM
Experimental: The prepared compounds 1–126 were tested on three breast cancer cell lines namely, MDA-MB231, SKBR-3 and MCF-7 using MTT assay. SKBR-3 and MCF-7 cell lines are estrogen and progesterone hormone positive cell lines often used as a model for the hormone therapy.[18] […] Initially, all the prepared compounds 1–126 were tested on these three cancer cell lines at the screening concentration (10 μM) and percentage of cell viability was calculated 72 h after the treatment (Table 1). […]
measuredParameter: GI50 (µM)
Report as a plain number; the unit µM is understood.

# count of solved cases: 2
molecule: COc1ccc(-c2nc(N)nc(Nc3ccccc3Cl)n2)cc1
target: SKBR-3
unitString: µM
GI50: 1.1

molecule: COc1ccc(-c2nc(N)nc(Nc3cccnc3)n2)cc1
target: SKBR-3
unitString: µM
GI50: 15.6

The value of GI50 measured for the molecule Cc1cn(-c2cc(NC(=O)c3ccc(C)c(Nc4nccc(-c5cccnc5)n4)c3)cc(C(F)(F)F)c2)cn1 [Nilotinib, reference compound] turned out to be 9.6

// GI50 lookup, molecule = COc1ccc(-c2nc(N)nc(Nc3cccc(Cl)c3)n2)cc1 , result: 0.18

----------
tested on: SKBR-3; test: MTT assay, SKBR-3 breast cancer cells; format: cell-based; conditions: Homo sapiens, SK-BR-3; 72 h, MTT, mean of three independent experiments ± SEM
Consider the following compounds and their measured GI50 readings.

Below: 4 compounds and their reported GI50.
compound: Nc1nc(Nc2ccccc2)nc(-c2ccc(OCc3ccccc3)cc2)n1 [Compound 110]
recordedMeasurement: > 20 µM
//
compound: COc1ccccc1Nc1nc(N)nc(-c2ccc(N(C)C)cc2)n1 [Compound 103]
recordedMeasurement: 3.63 µM
//
compound: Cc1ccc(-c2nc(N)nc(Nc3ccccc3F)n2)cc1 [Compound 61]
recordedMeasurement: > 20 µM
//
compound: COc1ccc(-c2nc(N)nc(Nc3ccccc3F)n2)cc1 [Compound 70]
recordedMeasurement: > 20 µM

Record summary for Cc1ccc(-c2nc(N)nc(Nc3ccc(F)cc3)n2)cc1 [Compound 62] : reported GI50 = > 20 µM

Looking up Nc1nc(Nc2ccc(F)cc2)nc(-c2ccc(Cl)cc2)n1 [Compound 36] , I see its GI50 listed as 19.4 µM

Short answer for Nc1nc(Nc2ccc(Br)cc2)nc(-c2cccc(F)c2)n1 [Compound 16] : GI50 was 17.2 µM

GI50 reported for this compound Nc1nc(Nc2ccc(OC(F)(F)F)cc2)nc(-c2cccc(F)c2)n1 [Compound 19] : > 20 µM

Form: compound = Cc1cccc(-c2nc(N)nc(Nc3ccc(OC(F)(F)F)cc3)n2)c1 [Compound 58] ; GI50 = > 20 µM
